- System: UACC-257
- assay-info: NCI tumour cell line growth inhibition, 48 h
The source made the active and inactive calls. Cut-off read from the data, not from the text of the source: active = GI50 up to about 1.1 µM and inactive = higher.
GI50 values, listed per item
readout: GI50

compound	measured-value
Cc1ccc2nc(CC(=O)c3ccc4ccccc4c3)c(O)nc2c1	> 100 µM (inactive)
NN1C(=O)C(CCO)S/C1=N/N=C1/SC(CCO)C(=O)N1N (stereo not drawn)	> 100 µM (inactive)
CC1(c2sccc2Cl)CC(c2sccc2Cl)=C(C#N)C(=C(C#N)C#N)N1 (stereo not drawn)	22.4 µM (inactive)
c1ccc2c(c1)Cn1c-2nc2ccccc21	> 100 µM (inactive)
O=C(NC12CC3CC(CC(C3)C1)C2)n1cnc2cncnc21	56.5 µM (inactive)
COc1cc2c(cc1OCCCOS(C)(=O)=O)N=C[C@@H]1CCCN1C2=O	> 100 µM (inactive)
CC(NC1=NCCO1)c1ccccc1Cl (stereo not drawn)	> 100 µM (inactive)
Cc1c2cc[n+](CCN3CCCCC3)cc2c(C)c2c1[nH]c1ccc(O)cc12	13.7 µM (inactive)
CCC1C(c2cccc(OC)c2O)c2cc3c(cc2OC1N1CCCC1)OCO3 (stereo not drawn)	17.8 µM (inactive)
COc1ccc2[nH]c(CCNC(=O)c3cc([N+](=O)[O-])cc([N+](=O)[O-])c3)cc2c1	> 100 µM (inactive)
Cc1cccc2c1Oc1ncccc1C2NC(=O)CN(C)C (stereo not drawn)	> 10 µM (inactive)
Nc1nc(N)c(N=O)c(OCC2CCCCC2)n1	9.02 µM (inactive)
Cc1ccc(-c2c(C#N)c(-c3ccccc3)c(C#N)c(=O)n2NS(=O)(=O)c2ccc(C)cc2)cc1	56.1 µM (inactive)
Cc1cc(OCc2nnc3sc(NC(=O)c4ccccc4)nn23)ccc1Cl	37.7 µM (inactive)
CN(C)P(=O)(Oc1ccc(CC(NC(=O)OCc2ccccc2)C(=O)OCc2ccccc2)cc1)N(C)C (stereo not drawn)	21.4 µM (inactive)
O=c1[nH]c(=O)n(C2CC(O)C(CO)O2)c2nc3cc4ccccc4cc3nc12 (stereo not drawn)	> 100 µM (inactive)
C=CCC12CCC(=O)C=C1CCC1(C2)OCCO1 (stereo not drawn)	> 100 µM (inactive)
O=[N+]([O-])c1cccc(C2SCc3nc4ccccc4n32)c1 (stereo not drawn)	39.3 µM (inactive)
Cc1nn(-c2ccccc2)c2nc3c(c(C)nn3-c3ccccc3)c(-c3ccccc3Br)c12	> 100 µM (inactive)
O=S(=O)(c1ccc(/N=N/O)nc1)c1ccc2ccccc2c1	> 100 µM (inactive)
CCOC(=O)C(C)c1nc2ccc(C(F)(F)F)cc2[nH]c1=O (stereo not drawn)	58.7 µM (inactive)
c1ccc(CNc2nncc3[nH]cnc23)cc1	> 100 µM (inactive)
c1ccc(SC2(Sc3ccccc3)CCCC2)cc1	> 100 µM (inactive)

* * *

- System: UACC-257
- assay-info: NCI tumour cell line growth inhibition, 48 h
Calls of active or inactive are those of the source. Rule as the data show it: active = GI50 up to about 1.1 µM and inactive = higher.
Labels: true (1) = active, false (0) = inactive

compound	qualitative-label
Nc1nc(Cl)cc(NCC2(CO)CCC2)n1	false (0)
N#Cc1c(-c2ccccc2)cc(-c2ccc(N)cc2)[nH]c1=O	false (0)
Nc1nc2cc(COc3ccc(C(=O)O)cc3)ccc2nc1-c1ccccc1	false (0)
O=C1OC(CCCN2CCCCC2)(c2ccccc2)CC12CCCC2 (configuration not stated)	false (0)
C/C(=N\Nc1ccc([N+](=O)[O-])cc1[N+](=O)[O-])c1ccc2ccccc2n1	false (0)
COc1ccc(C(C#N)Cc2cc(OC)c(OC)c(OC)c2)cc1 (configuration not stated)	false (0)
O=C1C(Cl)=C(N(C(=O)c2ccccc2)C(=O)c2ccccc2)C(=O)c2ccccc21	false (0)
O=C(/C=C/c1ccccc1)CC1OC(=O)c2ccccc21 (configuration not stated)	false (0)
[N-]=[N+]=Nc1c(-c2ccccc2)c(Cl)nc2ccccc12	false (0)
C=C1Cc2cc(OC)c(OC)c(OC)c2-c2ccc(SC)c(=O)cc21	true (1)
CCOC(=O)NC(N(C)C(C(C)C)P(=O)(OCC)OCC)(C(F)(F)F)C(F)(F)F (configuration not stated)	false (0)
C[C@@]1(O)C[C@@H](N2C(=O)O[C@@H](c3ccccc3)[C@H]2c2ccccc2)[C@@H]1COCc1ccccc1	false (0)
C=C(C(=O)O[C@H]1C/C(C)=C/CC/C(CO)=C/[C@H]2C(=O)OC(=C)[C@H]12)C(O)CO (some centres not stated)	false (0)
CNc1nc2c(C)ccc3nc(N(C)C)[nH]c3c-2n1	false (0)
CN(Cc1cnc2nc(N)nc(N)c2n1)c1ccc(C(=O)NC(CCC(=O)O)C(=O)O)c2ccccc12 (configuration not stated)	true (1)
COc1cc2c(c(OC)c1OC)-c1c(cc3c(c1OC)OCO3)CC(C)C(C)(O)C2OC(=O)c1ccccc1 (configuration not stated)	false (0)
C=CCN1C(=O)C/C(=C2/CCC(=O)N2CC=C)C1=O	false (0)
O=C(OCC1CCCN2CCCCC12)c1ccncc1 (configuration not stated)	false (0)
COc1cc2cc3c4cc(OC)c(OC)cc4cc[n+]3cc2cc1OC	false (0)
CC(C)=NOC(=O)CNC(=O)C(Cc1ccccc1)NC(=O)C(C)NC(=O)OC(C)(C)C (configuration not stated)	false (0)
COC(=O)c1ccc2c(c1)CC1(C2)Cc2cc3c(c(C(=O)OC)c2C1)CCCC3 (configuration not stated)	false (0)
O=C1CC[N+]2=Cc3ccccc3O[B-]2(c2ccccc2)O1 (configuration not stated)	false (0)
BrCCCCCOc1ccc(-c2c3ccccc3c(-c3ccc(OCCCCCBr)cc3)c3ccccc23)cc1	false (0)
Cc1nn(C(=O)c2ccc(Cl)cc2)c2c1C(c1ccco1)SC(=N)N2 (configuration not stated)	false (0)
O=P1(Oc2ccccc2)NCc2ncccc2O1 (configuration not stated)	false (0)
c1ccc(C(=NNc2nc3ccccc3[nH]2)c2ccccn2)nc1	true (1)
CCOC(=O)NN(C(=O)OCC)C(C(=O)C1=CCCCC1)N(NC(=O)OCC)C(=O)OCC	false (0)
C=CCN(N=O)C(=O)N(CCCCC(NC(C)=O)C(=O)NCc1ccccc1)Cc1ccccc1 (configuration not stated)	false (0)
CCOC(=O)C1C(=O)C=C(c2cc(C)ccc2O)CC1c1cccc(Br)c1 (configuration not stated)	false (0)
Nc1ccc2nc(N)n[n+]([O-])c2c1	false (0)
CC1=C(C(=O)O)N2C(=O)[C@@H](NC(=O)C(c3ccccc3)N3CSC(=S)N(C(C)C)C3)C2SC1 (some centres not stated)	false (0)
C[N+]1(C)CCOC(O)(c2ccccc2)C1 (configuration not stated)	false (0)
CCO/C=N/NC(=O)CSc1nc2ccc(I)cc2c(=O)n1Cc1ccccc1	false (0)
N#CC1=C(N)OC(c2ccc([N+](=O)[O-])cc2)C1(C#N)C#N (configuration not stated)	false (0)
CCCN1C(=O)/C(=C\c2ccc(OC)c(OC)c2)S/C1=N\c1ccccc1	false (0)
CS(=O)(=O)C(=Cc1ccccc1Cl)S(C)(=O)=O	false (0)
Cc1ccc2c(O)cc(-c3ccc(C)s3)nc2n1	false (0)
Nn1c(CCCCCCCCc2nnc(COc3ccc(Cl)cc3)n2N)nnc1COc1ccc(Cl)cc1	false (0)
CC(C)(C)C1CCC2c3c([nH]c4ccccc34)C3C(=O)N(c4cc(Cl)ccc4Cl)C(=O)C3C2C1 (configuration not stated)	false (0)
N#C/C(=C\NC(=S)Nc1ccc(S(=O)(=O)Nc2ccccn2)cc1)C(N)=O	false (0)
COc1ccc(N2C(=O)C3c4[nH]c5ccc(F)cc5c4C4CCC(c5ccccc5)CC4C3C2=O)cc1 (configuration not stated)	false (0)
O=C1NCCN1/N=C/c1c(Cl)n(-c2ccccc2)c2ccccc12	false (0)

* * *

- Tested on: UO-31
- assay-info: NCI tumour cell line growth inhibition, 48 h
Where a name gives a salt, the structure may show the parent alone. The source made the active and inactive calls. Rule as the data show it: active = GI50 up to about 1.1 µM and inactive = higher.

molecule	GI50
O=C1CC[C@H]2CNC(=O)C[C@H]2C1	> 100 µM (inactive)
CCC(C)(C)C(=O)O[C@H]1C[C@@H](C)C=C2C=C[C@H](C)[C@H](CC[C@@H]3C[C@@H](O)CC(=O)O3)[C@H]21	3.72 µM (inactive)
C=CCN1C(=O)C/C(=C2/CCC(=O)N2CC=C)C1=O	> 100 µM (inactive)
CC(=O)NC(c1nc2cc(C)c(C)cc2[nH]1)c1nc2cc(C)c(C)cc2[nH]1	25.4 µM (inactive)
CCOC(=O)/C(C(=S)Nc1ccccc1)=C(/N)N1CCCC1	> 100 µM (inactive)
C=C1CC[C@@]2(OC1)OC1C[C@H]3[C@@H]4CC=C5C[C@@H](O)CC(OC6OCC(OC(=O)[C@@H](O)[C@@H](C)CC)C(OC(C)=O)C6OC6OC(C)C(O)C(O)C6O)[C@]5(C)[C@H]4CC[C@]3(C)C1[C@@H]2C (stereo not given in full)	2.4 µM (inactive)
Cc1ccc(/N=N/C(=O)NNc2ccc(C)c([N+](=O)[O-])c2)cc1[N+](=O)[O-]	15.2 µM (inactive)
Cc1cc2c(=O)cc(-c3ccncc3)oc2c(C(N)=O)c1C	> 100 µM (inactive)
C/C(=N\NC(=S)NC(CCC(=O)O)C(=O)O)c1cnccn1 (stereo not given)	> 100 µM (inactive)
CCN1CCN(c2ccc(Nc3ccnc4ccc5nn(C)nc5c34)cc2)CC1	12.8 µM (inactive)
c1cc(-c2ccc(-c3ccc(-c4ccc(-c5ccncc5)o4)cc3)o2)ccn1	21.5 µM (inactive)
O=C(/C=C/c1ccc(-c2ccccc2)cc1)c1ccccc1	35 µM (inactive)
Nn1c(CCCCCCCCc2nnc(COc3ccc(Cl)cc3)n2N)nnc1COc1ccc(Cl)cc1	25.4 µM (inactive)
C=CCN(N=O)C(=O)N(CCCCC(NC(C)=O)C(=O)NCc1ccccc1)Cc1ccccc1 (stereo not given)	29.6 µM (inactive)
C/C(=N\NC(N)=S)c1ccccn1.OB(O)c1ccccc1	2.39 µM (inactive)
O=C1c2ccccc2C(=O)c2c1ccc1c2OCO1	> 100 µM (inactive)
O=C1NC(=O)C2C(=O)NC(=O)C1C2(c1ccccc1)c1cc[nH]c1 (stereo not given)	74.6 µM (inactive)
CC1=CC(=O)NP(=O)(Oc2ccc(Cl)cc2)N1 (stereo not given)	> 100 µM (inactive)
O=C(O)CCc1nn2c(nc1=O)sc1ccc3ccccc3c12	> 100 µM (inactive)
O=C(Nc1nc(C23CC4CC(CC(C4)C2)C3)cs1)c1cc2cc(Br)cc(Br)c2oc1=O	> 100 µM (inactive)
c1ccc2c(c1)nc1n2CCCn2ccnc2-1	99.3 µM (inactive)
c1ccc(SC2(Sc3ccccc3)CCCC2)cc1	> 100 µM (inactive)
CC/C(Cl)=N\OC(=O)Nc1ccc(C#N)cc1	17.2 µM (inactive)
O=C(NCc1cccnc1)C(=O)NCc1cccnc1	> 100 µM (inactive)
CCOC(=O)C1C(=O)C=C(c2cc(C)ccc2O)CC1c1cccc(Br)c1 (stereo not given)	20.9 µM (inactive)
Cc1cccc2c1Oc1ncccc1C2NC(=O)CN(C)C (stereo not given)	> 10 µM (inactive)
COC(=O)c1cc2c(cc1CC1Cc3cc4c(cc3C1)CCC4)CCC2	32 µM (inactive)
COc1ccc2nc3cc(Cl)ccc3c(NCCCCCC(=O)NC(COc3cnc4c(ccc5cccnc54)c3)COc3cnc4c(ccc5cccnc54)c3)c2c1	74.5 µM (inactive)
CC1(C)C2CCC1(C)[C@H](n1c(=O)n([C@@H]3CC4CCC3(C)C4(C)C)c(=O)n([C@@H]3CC4CCC3(C)C4(C)C)c1=O)C2	38.7 µM (inactive)
CCOC(=O)NN(C(=O)OCC)C(C(=O)C1=CCCCC1)N(NC(=O)OCC)C(=O)OCC	> 100 µM (inactive)
COc1ccc2c3c([nH]c2c1[N+](=O)[O-])C(C)=NCC3	98.4 µM (inactive)
COc1ccc(N2C(=O)C3c4[nH]c5ccc(F)cc5c4C4CCC(c5ccccc5)CC4C3C2=O)cc1 (stereo not given)	21.4 µM (inactive)
C/C(=N/NC(=O)C[N+](C)(C)C)C(CN(C)C)C(=O)Nc1ccccc1 (stereo not given)	> 100 µM (inactive)
CC(C)(C)C(=O)O[C@@H]1COC2C(O)COC21 (stereo not given in full)	> 100 µM (inactive)
CCOC(=O)C1=C(OC(OCC)C(CC)[Se]c2ccccc2)CCC1 (stereo not given)	28.9 µM (inactive)
NCCc1cc(O)c(O)cc1O [OXIDOPAMINE HYDROCHLORIDE]	25.2 µM (inactive)
CCC/C(=N/NC(=O)C(N)=O)C(CC)C(=O)CCC(=O)N(Cc1ccccc1)Cc1ccccc1 (stereo not given)	> 100 µM (inactive)
Cc1c2cc[n+](CCN3CCCCC3)cc2c(C)c2c1[nH]c1ccc(O)cc12	17.1 µM (inactive)
CO/N=C(\C(=O)N(C)n1cnnc1)c1csc(NC(c2ccccc2)(c2ccccc2)c2ccccc2)n1	> 10 µM (inactive)
C=CCC12CCC(=O)C=C1CCC1(C2)OCCO1 (stereo not given)	> 100 µM (inactive)
